These data points were gathered from patent US20250051376A1.

- experimental details: physchem
- test parameters: pH 6.8, aqueous buffer, thermodynamic from solid
measurement kind: solubility at 31 min (µg/mL)

Cc1nc2c(O[C@H]3CCOc4cc(F)cc(F)c43)cc(C(=O)N(C)C)cc2n1COP(=O)(O)OC(C)(C)C = 2560

1. Cc1nc2c(O[C@H]3CCOc4cc(F)cc(F)c43)cc(C(=O)N(C)C)cc2n1COP(=O)(O)O
2. Cc1nc2c(O[C@H]3CCOc4cc(F)cc(F)c43)cc(C(=O)N(C)C)cc2n1COP(=O)(OC(C)(C)C)OC(C)(C)C
Input line: Quick check, higher solubility at 31 min between 1 and 2 ? Kindly give the label for the entry you pick.
Output line: 2
(2: 5120 µg/mL, 1: 2560 µg/mL)
